- System: Malme-3M
- measurement.protocol: NCI tumour cell line growth inhibition, 48 h
Where a name gives a salt, the structure may show the parent alone. Activity calls are given as the source filed them. Rule as the data show it: active = GI50 up to about 1.1 µM and inactive = higher. Starred links: 1 amine or outer side, 2 acyl side, 3 side chain; linkers in the order of their positions; H or OH if unused. Non-standard residues stand in square brackets, D forms with d. Residues, ends and D or L forms follow the SMILES beside them. ξ: configuration not given here. Ile(3ξ) = CCC(C)[C@H](N)C(=O)O; X35 = C=CCC(O[*:1])C(=O)[*:2]; NMeV = CN[C@H](C(=O)O)C(C)C; NMeA = CN[C@@H](C)C(=O)O; βAla = NCCC(=O)O
Labels: active, inactive

compound | target.of.assay | assigned.category
CCN(CC)c1ccc(/N=C2\C=C(Cl)C(=O)c3ncccc32)c(C)c1 | Malme-3M | inactive
Cc1cc(C)cc(Nc2nnc3n2S(=O)(=O)c2cc(C)c(Cl)cc2S3)c1 | Malme-3M | inactive
O=C1c2c(Br)sc(Br)c2[C@@H](Cl)[C@H]1Cl | Malme-3M | inactive
CC1=NCCc2c1[nH]c1cc(O)ccc21 [HARMALOL HYDROCHLORIDE] | Malme-3M | inactive
O=C(O)CC(NC(=O)C(F)(F)F)C(=O)NC1Cc2ccccc2OC1=O (stereo not given) | Malme-3M | inactive
COc1cccc(C(C#N)NC23CC4CC(CC(C4)C2)C3)c1 (stereo not given) | Malme-3M | inactive
Clc1ccc(/N=N/c2nc3ccccc3nc2/N=N/c2ccc(Cl)cc2Cl)c(Cl)c1 | Malme-3M | inactive
O=C(O)[C@@]1(Cc2ccc(O)cc2)C[C@@H]2Cc3ccccc3N2N1 | Malme-3M | inactive
COc1ccc(C(Cc2ccccc2)C2NC(=S)NC2=O)cc1 (stereo not given) | Malme-3M | inactive
COC(=O)C12Oc3ccc(-c4ccc5c(c4O)C(O)=C4C(=O)CC(C)C(O)C4(C(=O)OC)O5)c(O)c3C(O)=C1C(=O)CC(C)C2O (stereo not given) | Malme-3M | active
C(=C\N1CCCCC1)/c1nnnn1-c1ccccc1 | Malme-3M | inactive
Cc1c2ccncc2c(C)c2c1[nH]c1ccc(OC(C)(C)C)cc12 | Malme-3M | inactive
O=C1NC2OCC(O)C(O)C2O1 (stereo not given) | Malme-3M | inactive
C=CCC1OC(=O)CCNC(=O)[C@H](C)N(C)C(=O)[C@H](C(C)C)N(C)C(=O)[C@H](C(C)CC)NC(=O)[C@@H]2CCCN2C1=O (stereo not given in full) (cyclo([Ile(3ξ)][NMeV][NMeA][βAla][X35]P)) | Malme-3M | inactive
Nc1nc(SCC(=O)c2ccccc2)c2[nH]cnc2n1 | Malme-3M | inactive
CN(C)c1ccc(/C=C2\N=C(c3ccccc3)N(/N=C3\C(=O)Nc4ccccc43)C2=O)cc1 | Malme-3M | inactive
COc1ccc(Nc2nc3cc(C(F)(F)F)ccc3nc2-c2ccccc2)cc1OC | Malme-3M | inactive
O=C(N[C@H]1c2ccsc2/C(=N/O)[C@H]1O)C(F)(F)F | Malme-3M | inactive
O=C(c1ccccc1)c1c(C(F)(F)F)[n+]([O-])c2ccccc2[n+]1[O-] | Malme-3M | inactive
CC(C)=CCC[C@@H](C)C1=C(O)C(=O)C(C)=C(Nc2ccccc2Br)C1=O | Malme-3M | inactive
N#Cc1nc(-c2cccc(-c3nc(C#N)c(N)o3)n2)oc1N | Malme-3M | inactive
CCOC(=O)c1cc2c(OC)cc(OC)cc2oc1=O | Malme-3M | inactive
N#CC(NNC(=O)c1ccccc1O)c1ccccc1 (stereo not given) | Malme-3M | inactive
N#Cc1nc(-c2cccs2)oc1N | Malme-3M | inactive
CNCCC=C1c2ccccc2CCc2ccccc21 [NORTRIPTYLINE HYDROCHLORIDE] | Malme-3M | inactive
c1ccc(COCC23CCN(Cc4ccccc4)C(CC(OCc4ccccc4)C2)S3)cc1 (stereo not given) | Malme-3M | inactive
CCc1ccc(Cc2ccc(CC)c(NC(=O)C(=O)Cc3nc4ccccc4nc3C)c2CC)c(CC)c1NC(=O)C(=O)Cc1nc2ccccc2nc1C | Malme-3M | inactive
COc1ccc2c(O)c(Oc3ccc(Cl)cc3)c(=O)oc2c1 | Malme-3M | inactive
CCCCn1cc[n+](-c2nc3ccccc3n2C)c1 | Malme-3M | inactive
CC(C)OP(=O)(OC(C)C)c1ncn(-c2ccc([N+](=O)[O-])cc2)n1 | Malme-3M | inactive
C#C[C@@H](OC(=O)c1ccc([N+](=O)[O-])cc1)[C@@H]1C[C@H]2O[C@@H]([C@H](C/C=C/CC)OC(=O)c3ccc([N+](=O)[O-])cc3)C[C@H]2O1 | Malme-3M | inactive
CCOP(=O)(Nc1ccc(-c2ccc(N)cc2)cc1)OCC | Malme-3M | inactive
N#Cc1c(-c2nc3ccccc3s2)c(=O)oc2cc(O)ccc12 | Malme-3M | inactive
Cn1c2ccccc2c(=NNc2ccc(S(=O)(=O)N=C(N)N)cc2)c2ccccc21 | Malme-3M | inactive
CC1(C)CC(=O)C(CCC(=O)/C=C/c2ccccc2)C(=O)C1 | Malme-3M | inactive
CCCCC1Cc2cc(OC)ccc2-c2nc3cc(OC)ccc3n21.CCCCC1Cc2cc(OC)ccc2-c2nc3ccc(OC)cc3n21 (stereo not given) | Malme-3M | inactive
COc1cc2cc(C(=O)N3CC(CCl)c4ccc([N+](=O)[O-])cc43)[nH]c2c(OC)c1OC (stereo not given) | Malme-3M | inactive
CO[C@H]1C=C[C@]23c4cc5c(cc4CN(CC2O)[C@@H]3C1)OCO5 (stereo not given in full) | Malme-3M | inactive
CCOc1ccnc2c(OC)c(C)c3nc4ccccc4nc3c12 | Malme-3M | inactive
CCSC1=C(C)N(/C=N/C(C)(C)C)CC1 | Malme-3M | inactive
